test system: Rhizopus arrhizus; test: Antifungal activity against Rhizopus oryzae IFO 4766; type: functional
Could you please report measured MIC for the items listed next?
Answers are plain numbers, in µM.

CCCCCCCCCCCCCCCC/N=C(\N)NC	50

// switching to the query compound
q: Let me know recorded MIC for "CCCCCCCCCCCC/N=C(\N)NC" , thanks.
a: 200

----------
test system: Aspergillus niger; assay: Antifungal activity against Aspergillus niger ATCC 6275; assay type: functional
Could you please report measured MIC for the items listed next?

Working through the 2 molecules below one at a time, give MIC for each.
1. C/N=C(/N)NCCCCCCCCCCCC(=O)O
2. C/N=C(/N)NCCCCCCCCCCCCO

a:
> 400 µM
> 400 µM

q: Let me know recorded MIC for "CCCC/N=C(\N)NC" , thanks.
a: > 400 µM

----------
Could you please report measured MIC for the items listed next?
system: Aspergillus niger; test: Antifungal activity against Aspergillus niger ATCC 6275; type: functional
Numbers only, in µM.

Working through the 4 compounds below one at a time, give MIC for each.
1. CCCCCCCCCCCC/N=C(\N)NC
2. CCCCCCCCCCCCCCCC/N=C(\N)NC
3. C/N=C(/N)NCCC/C=C/CCC[C@H](C)C[C@H](C)[C@H]1OC(=O)C(C)C(O)/C=C/C(C)C(O)CC(O)C(C)C(O)CCC(C)C(O)CC2(O)OC(CC(OC(=O)CC(=O)O)CC(O)CC(O)C(C)C(O)/C=C/C=C/C1C)CC(O)C2O (stereo not given in full)
4. CNC(=N)NCCCCCCCCCCCC(=O)OC

a:
1. 50
2. 25
3. 2
4. 200

----------
tested on: Candida albicans; test: Antimicrobial activity against Candida albicans IFO 1061; assay type: functional
MEASURED ENDPOINT: MIC (µM)
Numbers only, in µM.

Past entries and their recorded results:
C/N=C(/N)NCCC/C=C/CCC[C@H](C)C[C@H](C)[C@H]1OC(=O)C(C)C(O)/C=C/C(C)C(O)CC(O)C(C)C(O)CCC(C)C(O)CC2(O)OC(CC(OC(=O)CC(=O)O)CC(O)CC(O)C(C)C(O)/C=C/C=C/C1C)CC(O)C2O (stereo partly drawn)	2
C/N=C(/N)NCCCCCCCCCCCC(=O)O	400
CCCCCCCCCCCC/N=C(\N)NC	400

// switching to the query compound
q: Let me know recorded MIC for "CCCCCCCCCCCCCCCC/N=C(\N)NC" , thanks.
a: 200

----------
Could you please report measured log10 of MIC for the items listed next?
tested on: Schizosaccharomyces pombe; assay: Antimicrobial activity against Schizosaccharomyces pombe L972 h-; assay type: functional
log10 MIC, µM

Past entries and their recorded results:
CNC(=N)NCCCCCCCCCCCC(=O)OC	2.60
CCCCCCCCCCCCCCCC/N=C(\N)NC	1.10

Working through the 2 molecules below one at a time, give log10 of MIC for each.
1. CCCCCCCCCCCC/N=C(\N)NC
2. CCCCCCCC/N=C(\N)NC

a:
1: 1.70; 2: 2.30

Working through the 2 molecules below one at a time, give log10 of MIC for each.
1. C/N=C(/N)NCCCCCCCCCCCC(=O)O
2. C/N=C(/N)NCCC/C=C/CCC[C@H](C)C[C@H](C)[C@H]1OC(=O)C(C)C(O)/C=C/C(C)C(O)CC(O)C(C)C(O)CCC(C)C(O)CC2(O)OC(CC(OC(=O)CC(=O)O)CC(O)CC(O)C(C)C(O)/C=C/C=C/C1C)CC(O)C2O (stereo partly drawn)

a:
[2.30, 0.30]
